The reported measurements were obtained from patent US20230129258A1.

Can you tell me Fold Improvement over BCY9173, EC50, PC3 for the items I'm about to list?
TARGET UNDER TEST: CD137 on Jurkat reporter cells (Promega kit CS196005) (UniProt Q07011)
Sequence (Q07011 24-255 limits assumed): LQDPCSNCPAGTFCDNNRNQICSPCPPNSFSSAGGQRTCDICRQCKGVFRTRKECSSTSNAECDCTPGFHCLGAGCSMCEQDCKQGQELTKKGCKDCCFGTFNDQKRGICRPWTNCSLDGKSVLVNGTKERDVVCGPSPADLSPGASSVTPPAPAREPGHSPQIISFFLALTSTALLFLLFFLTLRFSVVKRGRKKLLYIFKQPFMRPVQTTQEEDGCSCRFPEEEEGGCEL
RUN DESCRIPTION: cell-based or functional assay
Starred links: 1 amine or outer side, 2 acyl side, 3 side chain; linkers in the order of their positions; H or OH if unused. Positions of bridges follow the written chain, without caps; N, C: chain ends. Non-standard residues stand in square brackets, D forms with d. Chains are numbered I, II in the order given. No end group written: not given here. *: point of attachment. TATA = O=C(CC[*:1])N1CN(C(=O)CC[*:2])CN(C(=O)CC[*:3])C1; Hyp = O=C(O)[C@@H]1C[C@@H](O)CN1; hArg = N=C(N)NCCCC[C@H](N)C(=O)O; tBuAla = CC(C)(C)C[C@H](N)C(=O)O; dK(PYA) = not defined here; Nle = CCCC[C@H](N)C(=O)O; Pent4ynoyl = C#CCCC(=O)*
Answers are plain numbers, in fold.

Examples with answers:
# BINDER, UNIT LABEL, Fold Improvement over BCY9173, EC50, PC3
rows = [
    ("BCY13279 (linker I:1-I:8-I:15, II:1-II:8-II:15 via TATA (inferred); also: linker N-(acid-PEG3)-N-bis(PEG3-azide) on C-terminal dK of chain 1, joins two chain 2 copies via PYA triazoles) peptide 1: Ac-C[Hyp]LVNPLCLHP[dD]W[hArg]CL[dH]G[dK] peptide 2: Ac-C[tBuAla]PE[dK](Pent4ynoyl)PYCFADPY[Nle]CA", "fold", 4.74),
    ("BCY12723 (linker I:4-I:11-I:18, II:1-II:8-II:15 via TATA; not fully specified (bridges); reading uncertain; also: two CD137 bicycles per complex (EphA2:CD137 1:2)) peptide 1: A[hArg]DC[Hyp]LVNPLCLHP[dD]W[hArg]C peptide 2: Ac-C[tBuAla]EE[dK(PYA)]PYCFADPY[Nle]C", "fold", 2.2),
    ("BCY12725 (linker I:4-I:11-I:18, II:1-II:8-II:15 via TATA; not fully specified (bridges); reading uncertain; also: two CD137 bicycles per complex (EphA2:CD137 1:2)) peptide 1: A[hArg]DC[Hyp]LVNPLCLHP[dD]W[hArg]C peptide 2: Ac-C[tBuAla]PE[dK(PYA)]PYCFANPY[Nle]C", "fold", 0.1),
    ("BCY14335 (linker I:4-I:11-I:18, II:1-II:8-II:15 via TATA (inferred); not fully specified; also: 1:2 complex: chain 1 Lys ('Lys 8') joined to dLys(PYA)5 of two chain 2 copies via N-(acid-PEG3)-N-bis(PEG3-azide) linker) peptide 1: {Palmitoyl‑Glu‑LysN3-Pent4ynoyl}-A[hArg]DC[Hyp]LVNPLCLKP[dD]W[hArg]C peptide 2: Ac-C[tBuAla]PE[dK](Pent4ynoyl)PYCFADPY[Nle]CA", "fold", 7.14),
]

Specify measured Fold Improvement over BCY9173, EC50, PC3 for heterotandem bicyclic peptide complex BCY12491 (linker I:4-I:11-I:18, II:1-II:8-II:15 via TATA (inferred); also: N-(acid-PEG3)-N-bis(PEG3-azide) linker at chain 1 N-terminus, joined to dLys(PYA)4 of two BCY8928 chains (1:2 complex)) peptide 1: A[hArg]DC[Hyp]LVNPLCLHP[dD]W[hArg]C peptide 2: Ac-C[tBuAla]PE[dK](Pent4ynoyl)PYCFADPY[Nle]CA .
2.3
